measurement_description: Acute toxicity (LD50, Beherns Kaerber's method)
condition_notes: mouse, in vivo, ip; single i.p. administration, 14 days observation, ddY mice
value_kind: LD50 at 336 h
Dear colleague, please send the value followed by its unit.

Look up LD50 at 336 h: C=C1C2=C(C(=O)C(C)=C3NCCN=C32)N2C[C@H]3[C@H](N3C)[C@]12O (some centres unmarked) 100 mg/kg

Look up LD50 at 336 h: CO[C@]12[C@@H]3[C@H](CN1C1=C(C4=NCCNC4=C(C)C1=O)[C@@H]2COC(N)=O)N3C (some centres unmarked) 5.6 mg/kg

Look up LD50 at 336 h: CO[C@@]12[C@H](COC(N)=O)C3=C(C(=O)C(C)=C4NCCN=C43)N1C[C@H]1[C@@H]2N1C (some centres unmarked) 2.6 mg/kg

Look up LD50 at 336 h: CC1=C2NCCN=C2C2=C(C1=O)N1C[C@H]3[C@H](N3C)[C@]1(O)[C@H]2COC(N)=O (some centres unmarked) 22.5 mg/kg

Look up LD50 at 336 h: CO[C@@]12[C@H](COC(N)=O)C3=C(C(=O)C(C)=C4NCCN=C43)N1C[C@@H]1N[C@@H]12 [Compound A, 7-N,8-N-ethylenemitomycin C 8-imine, reference compound] 6.5 mg/kg
